System: HCC-827
test: relative viability (nuclei count vs DMSO), 5 days (fraction); higher = more cells survive
measurementConditions: first compound 0.08 µM
endpointName: relative viability
The response must contain the number and no unit.

# input Using the record for O=c1cc(-c2cccc3c2Sc2ccccc2S3)oc(N2CCOCC2)c1 + Cc1cc(Nc2cc(N3CCN(C)CC3)nc(Sc3ccc(NC(=O)C4CC4)cc3)n2)n[nH]1 [Tozasertib] (partner 0.1 µM) , report its relative viability.
# output 0.462

# input Using the record for COc1nc(C)cnc1NS(=O)(=O)c1cccnc1-c1ccc(-c2nnco2)cc1 [Zibotentan] + Nc1nc2[nH]cc(CCc3ccc(C(=O)N[C@@H](CCC(=O)O)C(=O)O)cc3)c2c(=O)[nH]1 [Pemetrexed] (partner 0.2 µM) , report its relative viability.
# output 0.262

# input Using the record for COc1nc(C)cnc1NS(=O)(=O)c1cccnc1-c1ccc(-c2nnco2)cc1 [Zibotentan] + O=C(c1cc(Cc2n[nH]c(=O)c3ccccc23)ccc1F)N1CCN(C(=O)C2CC2)CC1 [Olaparib] (partner 8 µM) , report its relative viability.
# output 0.64

# input Using the record for COc1nc(C)cnc1NS(=O)(=O)c1cccnc1-c1ccc(-c2nnco2)cc1 [Zibotentan] + C[C@]1(O)C[C@@H](c2nc(-c3ccc4ccc(-c5ccccc5)nc4c3)c3c(N)nccn32)C1 [Linsitinib] (partner 1 µM) , report its relative viability.
# output 0.994
